Reference for the values: ChEMBL document CHEMBL5058577

tested on: U2OS; assay: Multiplex assay against U2OS; assay type: toxicity, cell-based; settings: human, 24 h, 1 µM, compound concentration 1 uM, replicate 2
Value Type: Population Fragmented Nuclei (%)
Quick note: give the figure in %, leave out the unit.

Examples with their reported Population Fragmented Nuclei (%) follow.
Compound	Value Type	Val
COc1cc(Nc2ncc3c(n2)-c2ccc(Cl)cc2C(c2c(F)cccc2OC)=NC3)ccc1C(=O)O	Population Fragmented Nuclei (%)	20
CN1C[C@H](C(=O)N[C@]2(C)O[C@@]3(O)[C@@H]4CCCN4C(=O)[C@H](Cc4ccccc4)N3C2=O)C[C@@H]2c3cccc4[nH]cc(c34)C[C@H]21.CS(=O)(=O)O [DIHYDROERGOTAMINE MESYLATE]	Population Fragmented Nuclei (%)	21

Population Fragmented Nuclei (%) recorded for this compound, Cl.Cl.OCCOCCN1CCN(C(c2ccccc2)c2ccc(Cl)cc2)CC1 (stereo not drawn) [HYDROXYZINE HYDROCHLORIDE] , is 9
